Test: growth inhibition of DIPG glioma cells, dose response, cell-based, SU-DIPG-XIII, MIPE4.0, CellTiter-Glo, qHTS (AID 1347061);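 also: cells exposed to compound for 48 hours before readout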
Settings: SU-DIPG-XIII viability, CellTiter-Glo ATP luminescence
Inconclusive results are not listed. Calls of active or inactive are those of the source. The limit is not given here; nearly all actives have AC50 up to about 37 µM.
Respond only with the outcome that fits, drawn from active, inactive

Check out these entries, answers already filled in.
- Compound: "C[C@]12CC[C@@H]3c4ccc(OC(=O)N(CCCl)CCCl)cc4CC[C@H]3[C@@H]1CC[C@@H]2OP(=O)(O)O"
  Label Class: "inactive"
- Compound: "CNC(=O)c1ccc(N2C(=S)N(c3ccc(C#N)c(C(F)(F)F)c3)C(=O)C23CCC3)cc1F"
  Label Class: "inactive"

Recorded test call requested for C/C=C(\C)C(=O)N[C@@H](c1ccccc1)[C@@H](O)C(=O)O[C@H]1C[C@@]2(O)[C@@H](OC(=O)c3ccccc3)[C@@H]3[C@]4(OC(C)=O)CO[C@@H]4C[C@H](O)[C@@]3(C)C(=O)[C@H](OC(C)=O)C(=C1C)C2(C)C
inactive

Tell me the assay call for O=C(NCC1CCOCC1)c1cnc(Nc2ccc(Cl)cc2Cl)nc1C(F)(F)F please.
inactive

What outcome does the record of this test show for CN1CCN(C(=O)O[C@H]2c3nccnc3C(=O)N2c2ccc(Cl)cn2)CC1 ?
inactive

----------
Test: SU-DIPG-XXV glioma cell viability, MIPE5.0 library, qHTS (AID 1347068);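 as to IC50: cells exposed to compound for 48 hours before viability readout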
Results filed as inconclusive are left out. The source made the active and inactive calls. Cut-off not given; nearly all actives show IC50 up to about 30 µM.
Pick one and only one: active, inactive

Example cases with answers are listed next.
- Compound: "Cn1c(CCCC(=O)O)nc2cc(N(CCCl)CCCl)ccc21"
  Label Class: "inactive"
- Compound: "C[C@]12CC[C@H](O)CC1=CC[C@@H]1[C@@H]2CC[C@]2(C)C(=O)CC[C@@H]12"
  Label Class: "inactive"
- Compound: "N=c1c2c(-c3ccccc3)c(-c3ccccc3)n(Cc3ccccc3)c2ncn1C1CCC(O)CC1 (stereo not given)"
  Label Class: "active"
- Compound: "O=C(O)CNC(=O)c1c(O)c2ccccc2n(Cc2ccccc2)c1=O"
  Label Class: "inactive"

Then this compound:
Please state the recorded outcome for this compound: CC(C)(C)c1cc(C=C(C#N)C#N)cc(Br)c1O
inactive

----------
Would you kindly list activity remaining for each of these compounds?
Tested on: Aerobactin synthetase IucA (Klebsiella pneumoniae hvKP1)
Test: Biochemical IucA enzyme inhibition primary screen of the Spectrum library (AID 1346200);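 also: 100% = wells without compound and 0% = wells lacking enzyme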
Conditions: malachite green pyrophosphate, A620, at 8 µM, active compounds read low
One number for each entry, in %.

Worked cases, answers included:
- Compound: "CNC(Cc1c[nH]c2ccccc12)C(=O)O (configuration not stated)"
  Measured Quantity: "activity remaining"
  Observed Result: 108
- Compound: "O=C(O)CC(O)(CC(=O)O)C(=O)O"
  Measured Quantity: "activity remaining"
  Observed Result: 123
- Compound: "COc1ccccc1-c1coc2cc(OC)c(OC)c(OC)c2c1=O"
  Measured Quantity: "activity remaining"
  Observed Result: 116
- Compound: "CC(=O)O[C@@H]1CC2C(C)(C)[C@@H](O)CC[C@]2(C)C2CC[C@@]3(C)[C@H](c4ccoc4)OC(=O)[C@H]4O[C@]43[C@@]21C (some centres not stated)"
  Measured Quantity: "activity remaining"
  Observed Result: 124

For every item in the list below, what is its measured activity remaining?
1. O=C(O)/C=C/C=C/c1ccccc1
2. COC1=CC(=O)C(O)=C/C1=C\C=C\c1ccccc1
3. N#Cc1ccc2c(c1)N(CCCN1CCC(O)CC1)c1ccccc1S2
4. Nc1ccc(S(=O)(=O)NC(=O)c2ccccc2)cc1
5. CC12CCC3c4ccc(OCc5ccccc5)cc4CCC3C1C[C@@H](O)[C@@H]2O (some centres not stated)

[103, 106, 111, 109, 119]

List activity remaining for every entry below, keeping the order given.
1. CCC(c1ccc(O)cc1)C(CC)c1ccc(O)cc1 (configuration not stated)
2. C=C[C@H]1CN2CC[C@H]1C[C@@H]2[C@@H](OC(=O)OCC)c1ccnc2ccc(OC)cc12
3. CC1=C2CCC3C(CC[C@]4(C)C(=O)CCC34)[C@@]2(C)CCC1=O (some centres not stated)

[121, 98.2, 104]

Cited source: PubChem BioAssay
